- protocol notes: Stability of compounds in human plasma
- measurement conditions: 6 h, 50% human plasma/PBS pH 7.4, 37° C.
observation type: % compound remaining after incubation in 50% human plasma (%)
The reply should contain only the number, in %.

Reported % compound remaining after incubation in 50% human plasma, molecule CCCCCCCCCCCCCC(=O)N[C@H](CCCCN)C(=O)N[C@H](CCCCN)C(=O)NCC(=O)NCCNC(=O)[C@H]1NC(=O)[C@H]2NC(=O)[C@H](NC(=O)[C@@H]3NC(=O)[C@H](CC(N)=O)NC(=O)[C@H](NC(=O)[C@@H](CC(C)C)NC)[C@H](O)c4ccc(c(Cl)c4)Oc4cc3cc(c4O[C@@H]3O[C@H](CO)[C@@H](O)[C@H](O)[C@H]3O[C@H]3C[C@](C)(N)[C@H](O)[C@H](C)O3)Oc3ccc(cc3Cl)[C@H]2O)c2ccc(O)c(c2)-c2c(O)cc(O)cc21 [MCC_000227, nC13CO-kkG-NHC2NH-Vanc] : ____
93
